Test: Surface tension measurement (Tracker tensiometer)
Format: physicochemical
Settings: concentration 0.500 %; room temperature
Procedure: Surface tension measurements were conducted on a Tracker tensiometer (Teclis Instruments) at room temperature. Various concentrations of surfactant solutions were prepared and measurements were conducted. The surface tension as a function of concentration of the cationic surfactant samples were measured and are listed in Table 2, where NT means not tested.
MEASURED_PROPERTY: Surface tension (mN/m)
Give bare numbers, in mN/m.

Give the reported value of Surface tension for this record: CCCCCCCCCCCCCCCCCC[N+](C)(C)CC(O)CN(CCN(CC(O)C[N+](C)(C)CCCCCCCCCCCCCCCCCC)CC(O)C[N+](C)(C)CCCCCCCCCCCCCCCCCC)CCN(CC(O)C[N+](C)(C)CCCCCCCCCCCCCCCCCC)CC(O)C[N+](C)(C)CCCCCCCCCCCCCCCCCC.[Cl-].[Cl-].[Cl-].[Cl-].[Cl-] (stereo not shown)
45.02

###

Assay: Surface tension measurement (Tracker tensiometer)
Assay type: physicochemical
Conditions: concentration 0.010 %; room temperature
Procedure: Surface tension measurements were conducted on a Tracker tensiometer (Teclis Instruments) at room temperature. Various concentrations of surfactant solutions were prepared and measurements were conducted. The surface tension as a function of concentration of the cationic surfactant samples were measured and are listed in Table 2, where NT means not tested.
Exercise: state measured Surface tension for each of the compounds provided.
Give bare numbers, in mN/m.

// solved cases for Surface tension follow
INSERT INTO measurements (compound, measured_property, readout_unit, quantitative_result) VALUES
  ('CCCCCCCCCCCCCCCCCC[N+](C)(C)CC(O)CN(CCN(CCN(CC(O)C[N+](C)(C)C)CC(O)C[N+](C)(C)C)CC(O)C[N+](C)(C)C)CC(O)C[N+](C)(C)C.[Cl-].[Cl-].[Cl-].[Cl-].[Cl-] (stereo not drawn)', 'Surface tension', 'mN/m', 73.70),
  ('CCCCCCCCCCCCCCCCCC[N+](C)(C)CC(O)CN(CCN(CCN(CC(O)C[N+](C)(C)C)CC(O)C[N+](C)(C)CCCCCCCCCCCCCCCCCC)CC(O)C[N+](C)(C)C)CC(O)C[N+](C)(C)C.[Cl-].[Cl-].[Cl-].[Cl-].[Cl-] (stereo not drawn)', 'Surface tension', 'mN/m', 73.11),
  ('CCCCCCCCCCCCCCCCCC[N+](C)(C)CC(O)CN(CCN(CCN(CC(O)C[N+](C)(C)CCCCCCCCCCCCCCCCCC)CC(O)C[N+](C)(C)CCCCCCCCCCCCCCCCCC)CC(O)C[N+](C)(C)C)CC(O)C[N+](C)(C)C.[Cl-].[Cl-].[Cl-].[Cl-].[Cl-] (stereo not drawn)', 'Surface tension', 'mN/m', 70.99),
  ('CCCCCCCCCCCCCCCCCC[N+](C)(C)CC(O)CN(CCN(CCN(CC(O)C[N+](C)(C)CCCCCCCCCCCCCCCCCC)CC(O)C[N+](C)(C)CCCCCCCCCCCCCCCCCC)CC(O)C[N+](C)(C)C)CC(O)C[N+](C)(C)CCCCCCCCCCCCCCCCCC.[Cl-].[Cl-].[Cl-].[Cl-].[Cl-] (stereo not drawn)', 'Surface tension', 'mN/m', 63.52),
  ('CCCCCCCCCCCCCCCCCC[N+](C)(C)CC(O)CN(CCN(CC(O)C[N+](C)(C)CCCCCCCCCCCCCCCCCC)CC(O)C[N+](C)(C)CCCCCCCCCCCCCCCCCC)CCN(CC(O)C[N+](C)(C)CCCCCCCCCCCCCCCCCC)CC(O)C[N+](C)(C)CCCCCCCCCCCCCCCCCC.[Cl-].[Cl-].[Cl-].[Cl-].[Cl-] (stereo not drawn)', 'Surface tension', 'mN/m', 63.16);

Lab note: next compound to report on.
Give the reported value of Surface tension for this record: CCCCCCCCCCCCCCCCCC[N+](C)(C)CC(O)CN(CCN(CCN(CC(O)C[N+](C)(C)CCCCCCCCCCCCCCCCCC)CC(O)C[N+](C)(C)CCCCCCCCCCCCCCCCCC)CC(O)C[N+](C)(C)CCCCCCCCCCCCCCCCCC)CCN(CC(O)C[N+](C)(C)CCCCCCCCCCCCCCCCCC)CC(O)C[N+](C)(C)CCCCCCCCCCCCCCCCCC.[Cl-].[Cl-].[Cl-].[Cl-].[Cl-].[Cl-] (stereo not drawn)
63.28
